Reported values of Kd for individual entries
Biological target: T1, human MerTK on M2c-differentiated human macrophages (human, UniProt Q12866 21-999)
T1 construct: Endogenous MerTK of primary human macrophages; also called M2c-huMacrophages
T1 sequence: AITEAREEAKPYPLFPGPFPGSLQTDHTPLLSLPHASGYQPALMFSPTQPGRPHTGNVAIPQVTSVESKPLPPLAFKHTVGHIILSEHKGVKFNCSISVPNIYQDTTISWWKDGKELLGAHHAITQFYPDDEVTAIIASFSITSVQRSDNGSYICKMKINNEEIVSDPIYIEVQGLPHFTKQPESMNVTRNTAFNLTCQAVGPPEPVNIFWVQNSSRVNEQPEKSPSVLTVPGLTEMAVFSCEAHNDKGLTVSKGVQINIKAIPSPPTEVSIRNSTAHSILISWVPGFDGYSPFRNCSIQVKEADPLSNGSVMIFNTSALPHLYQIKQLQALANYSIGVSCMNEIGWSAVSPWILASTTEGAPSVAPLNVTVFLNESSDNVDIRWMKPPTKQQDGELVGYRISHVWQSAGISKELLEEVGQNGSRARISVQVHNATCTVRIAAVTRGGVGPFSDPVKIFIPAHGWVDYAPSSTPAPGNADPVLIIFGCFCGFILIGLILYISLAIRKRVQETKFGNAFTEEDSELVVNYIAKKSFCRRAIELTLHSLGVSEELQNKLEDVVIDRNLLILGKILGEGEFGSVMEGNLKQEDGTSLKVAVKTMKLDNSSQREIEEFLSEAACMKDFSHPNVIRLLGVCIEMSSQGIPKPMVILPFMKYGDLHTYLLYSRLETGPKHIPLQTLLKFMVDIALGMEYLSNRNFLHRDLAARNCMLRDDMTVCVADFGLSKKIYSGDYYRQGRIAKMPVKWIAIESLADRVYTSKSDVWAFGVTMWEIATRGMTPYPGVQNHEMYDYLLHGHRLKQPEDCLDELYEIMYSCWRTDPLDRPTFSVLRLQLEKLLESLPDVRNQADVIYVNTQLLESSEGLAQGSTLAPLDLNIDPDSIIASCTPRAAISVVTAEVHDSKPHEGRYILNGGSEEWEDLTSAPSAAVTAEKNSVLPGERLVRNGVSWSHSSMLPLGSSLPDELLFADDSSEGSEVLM
Assay: flow cytometry on M2c-differentiated human macrophages, Dylight650-conjugated antibody; average FACS Kd from Prism fit of MFI

[[record]]
binder = "bivalent anti-MerTK antibody MTK-16.2 (full IgG) (antibody, V domains shown) VH: QVQLVQSGSELKKPGASVKVSCKASGYTFTNHGMNWVRQAPGQGLEWMGWINTYTGEPTYADDFKGRFVFSLDTSVSTAYLQISSLKAEDTAVYYCARKGVTAARYFDYWGQGTLVTVSS VL: DIQMTQSPSSLSASVGDRVTITCRASQNVRTAVAWYQQKPGKAPKRLIYLASNRHTGVPSRFSGSGSGTEFTLTISNLQPEDFATYYCLQHWNYPLTFGGGTKLEIKR"
result = "51.9 nM"

[[record]]
binder = "bivalent anti-MerTK antibody MTK-33.11 (full IgG) (antibody, V domains shown) VH: QVQLVQSGAEVKKPGASVKVSCKASGYTFTSYWMHWVRQAPGQGLEWIGVIDPSDNYINYNQKFQGRVTMTRDTSTSTVYMELSSLRSEDTAVYYCAREAWTRGYFDYWGQGTLVTVSS VL: DIQMTQSPSSLSASVGDRVTITCQASRSVRNTVAWYQQKPGKAPKLLIYYASNRYTGVPSRFSGSGSGTDFTFTISSLQPEDIATYYCQQDYRSPFTFGQGTKLEIKR"
result = "2 nM"

[[record]]
binder = "monovalent anti-MerTK antibody MTK-33.11 (antibody, V domains shown) VH: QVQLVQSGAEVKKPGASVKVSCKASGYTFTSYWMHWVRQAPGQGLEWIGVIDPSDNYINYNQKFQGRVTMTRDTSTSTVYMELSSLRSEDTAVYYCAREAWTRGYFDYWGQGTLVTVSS VL: DIQMTQSPSSLSASVGDRVTITCQASRSVRNTVAWYQQKPGKAPKLLIYYASNRYTGVPSRFSGSGSGTDFTFTISSLQPEDIATYYCQQDYRSPFTFGQGTKLEIK"
result = "9.96 nM"


Turning to the following binder.
Hello, please tell me recorded Kd for this one: monovalent anti-MerTK antibody MTK-16.2 (antibody, V domains shown) VH: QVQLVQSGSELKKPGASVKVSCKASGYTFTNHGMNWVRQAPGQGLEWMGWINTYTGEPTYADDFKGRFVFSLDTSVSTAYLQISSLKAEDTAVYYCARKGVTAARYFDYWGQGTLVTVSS VL: DIQMTQSPSSLSASVGDRVTITCRASQNVRTAVAWYQQKPGKAPKRLIYLASNRHTGVPSRFSGSGSGTEFTLTISNLQPEDFATYYCLQHWNYPLTFGGGTKLEIK
77.8 nM
